Attribution: ChEMBL document CHEMBL4390683

- System: Mus musculus
- experiment: Induction of serum IFNgamma production in C57BL/6 mouse assessed as serum IFNgamma level at 100 ug/kg, ip and measured for 48 hrs by AUC method
- Type: functional
Form field: AUC (one value per entry).
Entry rule: numbers only, all in pg·h/mL.

Example results:
[
  {
    "compound": "CCCCCCCCCCCCCCCCCCCCCCCCCC(=O)N[C@@H](CO[C@H]1O[C@H](CO)[C@H](O)[C@H](O)[C@H]1O)[C@H](O)[C@H](O)CCCCCCCCCCCCCC [RGI-7000]",
    "outcomeMeasure": "AUC",
    "displayUnit": "pg·h/mL",
    "experimentalResult": 17400
  },
  {
    "compound": "CCCCCCCCCCCCCCCCCCCCCCCC(=O)N[C@@H](CO[C@H]1O[C@H](CNC(=O)CCc2ccc(O)cc2)[C@H](O)[C@H](O)[C@H]1O)[C@H](O)[C@H](O)CCCCC",
    "outcomeMeasure": "AUC",
    "displayUnit": "pg·h/mL",
    "experimentalResult": 4380
  },
  {
    "compound": "CCCCCCCCCCCCCCCCCCCCCCCC(=O)N[C@@H](CO[C@H]1O[C@H](CNC(=O)[C@@H](N)CCC(=O)O)[C@H](O)[C@H](O)[C@H]1O)[C@H](O)[C@H](O)CCCCC",
    "outcomeMeasure": "AUC",
    "displayUnit": "pg·h/mL",
    "experimentalResult": 3520
  }
]

Please fill in: AUC reported for `CCCCCCCCCCCCCCCCCCCCCCCC(=O)N[C@@H](CO[C@H]1O[C@H](CO)[C@H](O)[C@H](O)[C@H]1O)[C@H](O)[C@H](O)CCCCC` = 6780
